systemTested: EV-D68 2A protease (Human enterovirus D68)
Sequence (A0A097BW12 862-1008): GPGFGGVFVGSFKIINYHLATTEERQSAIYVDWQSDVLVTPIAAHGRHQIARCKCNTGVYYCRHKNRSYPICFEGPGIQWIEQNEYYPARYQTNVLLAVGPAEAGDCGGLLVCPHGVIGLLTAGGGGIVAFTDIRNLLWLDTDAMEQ
testProtocol: EV-D68 VP1·2A self-processing (intra-molecular cleavage) in translation extracts
Assay type: biochemical
details: approximate; translation extracts, drug added at initiation of translation
propertyMeasured: IC50 (µM)
Provide the reading as a plain figure in µM.

[ask] Entry CCC[C@H](NC(=O)[C@@H]1[C@H]2CCC[C@H]2CN1C(=O)[C@@H](NC(=O)[C@@H](NC(=O)c1cnccn1)C1CCCCC1)C(C)(C)C)C(=O)C(=O)NC1CC1 [Telaprevir] : reported IC50 = ?
[reply] 3.96

====

systemTested: UniProt:A0A097BW12
testProtocol: biochemical
Assay type: biochemical
details: IC50, inter-molecular cleavage of eIF4G by EV-D68 2A
pIC50: −log10 of the molar value.
propertyMeasured: pIC50

[ask] // pIC50 lookup, key: CCC[C@H](NC(=O)[C@@H]1[C@H]2CCC[C@H]2CN1C(=O)[C@@H](NC(=O)[C@@H](NC(=O)c1cnccn1)C1CCCCC1)C(C)(C)C)C(=O)C(=O)NC1CC1
[reply] ~6.70

====

systemTested: poliovirus 2A protease (Poliovirus type 1, UniProt P03300)
Sequence (P03300 580-1030 limits assumed): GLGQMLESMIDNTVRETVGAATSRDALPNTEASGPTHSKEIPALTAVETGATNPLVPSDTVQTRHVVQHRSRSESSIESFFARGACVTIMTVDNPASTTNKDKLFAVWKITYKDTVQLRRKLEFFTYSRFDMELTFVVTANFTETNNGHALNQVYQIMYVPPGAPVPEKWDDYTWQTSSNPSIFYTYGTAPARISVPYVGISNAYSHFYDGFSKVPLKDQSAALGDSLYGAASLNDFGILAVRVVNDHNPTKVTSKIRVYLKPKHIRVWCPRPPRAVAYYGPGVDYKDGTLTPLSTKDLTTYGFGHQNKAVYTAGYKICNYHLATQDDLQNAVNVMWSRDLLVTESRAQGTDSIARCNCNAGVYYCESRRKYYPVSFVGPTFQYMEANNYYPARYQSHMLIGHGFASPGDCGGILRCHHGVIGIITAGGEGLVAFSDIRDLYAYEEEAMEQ
details: read-out: IC50, intra-molecular poliovirus VP1·2A cleavage
pIC50: −log10 of the molar value. Residues, ends and D or L forms follow the SMILES beside them. *: point of attachment. Cbz = O=C(OCc1ccccc1)*; CH2F = FC*
propertyMeasured: pIC50

[ask] Any idea what its pIC50 is? The molecule is CSCCC(NC(=O)C(C)NC(=O)C(NC(=O)OCc1ccccc1)C(C)C)C(=O)CF (stereo not drawn) [zVAM.fmk] (Cbz-Val-Ala-Met-CH2F; configuration not given here)
[reply] ~2.80

====

systemTested: EV-D68 2A protease (Human enterovirus D68)
testProtocol: biochemical
Format: biochemical
details: IC50, eIF4G (inter-molecular) cleavage by EV-D68 2A
propertyMeasured: pIC50
Convention used: pIC50 is expressed as -log10 of the molar concentration.

[ask] Data request, read-out pIC50, for CCC[C@H](NC(=O)[C@@H]1[C@H]2CCC[C@H]2CN1C(=O)[C@@H](NC(=O)[C@@H](NC(=O)c1cnccn1)C1CCCCC1)C(C)(C)C)C(=O)C(=O)NC1CC1 [Telaprevir]
[reply] 6.72

====

systemTested: UniProt:P03300
testProtocol: biochemical
Assay type: biochemical
details: IC50, inter-molecular cleavage of poliovirus 3ABC
propertyMeasured: IC50

[ask] // query IC50 value for entry CCOC(=O)/C=C/[C@H](C[C@@H]1CCNC1=O)NC(=O)[C@@H](CC(=O)[C@@H](NC(=O)c1cc(C)on1)C(C)C)Cc1ccc(F)cc1
[reply] ~0.76 µM

====

systemTested: poliovirus 2A protease (Poliovirus type 1, UniProt P03300)
details: read-out: IC50, Poliovirus VP1·2A (intra-molecular) cleavage
Residues, ends and D or L forms follow the SMILES beside them. *: point of attachment. Cbz = O=C(OCc1ccccc1)*; CH2F = FC*
propertyMeasured: IC50
Units required after the number.

[ask] Given the compound CSCCC(NC(=O)C(C)NC(=O)C(NC(=O)OCc1ccccc1)C(C)C)C(=O)CF (stereo not drawn) [zVAM.fmk] (Cbz-Val-Ala-Met-CH2F; configuration not given here) , what is its reported IC50?
[reply] 1570 µM
